test system: Escherichia coli; assay: Antimicrobial activity against Escherichia coli ATCC 8739 by MHB method; format: functional
measurement.type: MIC

The examples below pair each entry with its known result.
COc1cc(CC/C=N/OC(=O)CCl)cc2cc(-c3ccc4c(c3)OCO4)oc12 800 µg/mL
COc1c([N+](=O)[O-])c(CCCO)cc2c([N+](=O)[O-])c(-c3ccc4c(c3)OCO4)oc12 400 µg/mL

Continue with the compound presented below.
Measured MIC, "COc1cc(CCCCl)cc2c([N+](=O)[O-])c(-c3ccc4c(c3)OCO4)oc12" : 800 µg/mL
